Values compiled from PubChem BioAssay (NCI).

# Tested on: SF-295 CNS
# TEST SUMMARY: NCI-60 one-dose screen, 48 h
# TEST PARAMETERS: 10 µM unless noted
Compounds without any hit were thinned out: in the full panel of roughly 83,000, 20% have a hit. The source made the active and inactive calls. The calls were made as follows: active = growth percent below 10; inactive = the rest.
Form entry, call: pick from class 1 = active, class 0 = inactive

COMPOUND	CAT
O=c1[nH]c2ccc(Cl)cc2cc1CSc1nccc(-c2ccc(Cl)cc2)n1	class 0

(Q) Which result was noted for this compound in the test: CCCCSc1nc(Nc2ccc(S(N)(=O)=O)cc2)c(C#N)c(-c2cc(OC)c(OC)c(OC)c2)n1
(A) class 0

(Q) Test call, this compound: COc1cc(-c2ccc(/C=N/NC(=O)c3[nH]c4ccc(Br)cc4c3-c3ccccc3)s2)cc(OC)c1OC
(A) class 0

(Q) Each compound tested received a call. Report the one for COc1ccc(/C=C/c2nc3ccccc3c(=O)n2CC(=O)Nc2ccc(Cl)cc2)cc1 .
(A) class 0

(Q) Test call, this compound: COc1ccc(-c2nc3cc(C)ccc3n2CC(=O)N=Nc2c(O)[nH]c3ccccc23)cc1
(A) class 0

(Q) Field: outcome | Entry: N#Cc1c(NCc2ccccc2)n[nH]c1Nc1ccccc1
(A) class 0

(Q) What classification did CC1(c2cc3cc(Cl)ccc3oc2=O)NC(=O)c2c(/C=C/C(=O)OC3CC4CCC3(C)C4(C)C)cccc2N1 (configuration not stated) end up with in this test?
(A) class 0

(Q) Look up the recorded call for O=C(NNc1ccccc1)n1c(=O)c2ccccc2c(=O)n1-c1ccccc1 in this test.
(A) class 0

(Q) Per the records of this test, what outcome belongs to Cc1cc(N=C2NC(=O)CS2)n[nH]1 ?
(A) class 0
